tested on: Liver microsome; experiment: Unbound fraction corrected apparent intrinsic clearance in Wistar rat liver microsomes at 1 uM after 2.5 to 15 mins by LC-MS/MS analysis in presence of NADPH; assay type: ADME
Classify: MET when CL free is strictly less than 7000 µL/min/mg; NOT MET when CL free is not.

Record excerpt, results attached:
CHEMICAL_SMILES | TARGET | LABEL_CLASS
CCc1cc(-c2noc(-c3cc(C)c(CN(C)C)s3)n2)cc(C)c1OC[C@@H](O)CNC(=O)CO | Liver microsome | NOT MET
CCCCN(C)Cc1cc(C)cc(-c2nc(-c3cc(C)c(OC[C@@H](O)CNC(=O)CO)c(CC)c3)no2)c1 | Liver microsome | NOT MET
CCc1cc(-c2noc(-c3cc(C)nc(CN(C)CC(C)C)c3)n2)cc(C)c1OC[C@@H](O)CNC(=O)CO | Liver microsome | MET

input: Dear colleague, could you confirm whether CL free of CCc1cc(-c2nc(-c3cc(C)c(OC[C@@H](O)CNC(=O)CO)c(CC)c3)no2)ccc1CN(C)C falls below 7000 µL/min/mg? Thanks.
output: NOT MET

input: Quick one: CCc1cc(-c2noc(-c3cc(C)c(CN(C)CC(C)C)s3)n2)cc(C)c1OC[C@@H](O)CNC(=O)CO
output: NOT MET

input: Quick one: CCc1cc(-c2noc(-c3cc(C)cc(CN(C)CC(C)C)c3)n2)cc(C)c1OC[C@@H](O)CNC(=O)CO
output: MET
